Measured Ki by item
Molecular target: Pa-AmpC (Pseudomonas aeruginosa)
Test: biochemical
Conditions: nitrocefin reporter substrate; 10 min preincubation at room temperature; read-out: Ki (Pa-AmpC, NCF)

Quick one: Ki of COc1ccc2c(c1C(=O)O)OB(O)C=C2 ?
100 to 1000 nM

Which measured Ki value corresponds to COc1ccc2c(c1C(=O)O)OB(O)C1C2C1(F)F (stereo not drawn) ?
> 1000 nM

Please report the recorded Ki for O=C(O)c1c(F)c(F)cc2c1OB(O)C1CC21 (stereo not drawn) .
< 100 nM

* * *

Molecular target: Pa-AmpC (Pseudomonas aeruginosa, UniProt P24735)
Sequence (P24735 27-397): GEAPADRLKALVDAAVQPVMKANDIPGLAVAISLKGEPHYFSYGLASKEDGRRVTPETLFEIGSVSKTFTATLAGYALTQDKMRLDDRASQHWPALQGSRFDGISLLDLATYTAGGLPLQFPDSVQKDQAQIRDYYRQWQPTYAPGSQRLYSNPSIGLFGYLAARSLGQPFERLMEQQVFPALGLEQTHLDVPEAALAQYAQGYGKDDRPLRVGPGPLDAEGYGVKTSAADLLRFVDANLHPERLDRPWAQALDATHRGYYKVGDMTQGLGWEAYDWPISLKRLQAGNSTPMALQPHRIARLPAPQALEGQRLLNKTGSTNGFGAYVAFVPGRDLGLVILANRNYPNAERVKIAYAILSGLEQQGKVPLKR
Assay: biochemical
Conditions: nitrocefin reporter substrate; 10 min preincubation at room temperature; read-out: Ki (Pa-AmpC, NCF)
measured quantity: Ki

Some solved entries appear below for comparison.
COc1ccc2c(c1C(=O)O)OB(O)C1CC21 (stereo not drawn) [Compound 1] = < 100 nM
O=C(O)c1cccc2c1OB(O)[C@@H]1C[C@H]21 [Compound 16] = < 100 nM

Field: next molecule
What measured Ki goes with O=C(O)c1cccc2c1OB(O)CC21CC1 [Compound 14] ?
< 100 nM
